Tested on: MCF7
Measurement Notes: Antiproliferative activity against human MCF7 cells after 48 hrs by CCK8 assay
Format: functional, cell-based
Condition Set: Homo sapiens, MCF7, 48 h; read-out: IC50
Readout: IC50 (µM)

[[record]]
structure_smiles_string = "Cc1cc(Nc2nc(C(=O)c3ccccc3)nc3ccccc23)n[nH]1"
qualifier_symbol = ">"
value_measured = 30

[[record]]
structure_smiles_string = "Cc1cc(Nc2nc(-c3ccc4ccccc4c3)nc3ccccc23)n[nH]1"
qualifier_symbol = ">"
value_measured = 30

[[record]]
structure_smiles_string = "COc1cccc(OC)c1C(=O)c1nc(Nc2cc(C)[nH]n2)c2ccc(N3CCC(C(=O)OC(C)(C)C)CC3)cc2n1"
qualifier_symbol = "="
value_measured = 1.51

[[record]]
structure_smiles_string = "CN1CCN(c2ccc3c(Nc4cc[nH]n4)nc(-c4ccccc4)nc3c2)CC1"
qualifier_symbol = "="
value_measured = 7.88

[[record]]
structure_smiles_string = "Cc1cc(Nc2nc(-c3ccccc3)nc3c([N+](=O)[O-])cccc23)n[nH]1"
qualifier_symbol = "="
value_measured = 4.53

[[record]]
structure_smiles_string = "Cc1cc(Nc2nc(-c3ccccc3)nc3ccccc23)n[nH]1"
qualifier_symbol = "="
value_measured = 6.16

[[record]]
structure_smiles_string = "CCOC(=O)C1CCN(c2ccc3c(Nc4cc(C)[nH]n4)nc(-c4ccccc4)nc3c2)CC1"
qualifier_symbol = "="
value_measured = 2.23


* * *

Entries annotated with measured pIC50
Test system: MDA-MB-231
Measurement Notes: Antiproliferative activity against human MDA-MB-231 cells after 48 hrs by CCK8 assay
Type: functional, cell-based
Condition Set: MDA-MB-231, 48 h
pIC50: −log10 of the molar value.
Readout: pIC50

[[record]]
structure_smiles_string = "Cc1cc(Nc2nc(-c3ccccc3)nc3cc(Cl)ccc23)n[nH]1"
assayed_system = "MDA-MB-231"
qualifier_symbol = "<"
value_measured = 4.52

[[record]]
structure_smiles_string = "COc1cccc(OC)c1C(=O)c1nc(Nc2cc(C)[nH]n2)c2ccc(N3CCC(C(=O)OC(C)(C)C)CC3)cc2n1"
assayed_system = "MDA-MB-231"
qualifier_symbol = "="
value_measured = 5.86

[[record]]
structure_smiles_string = "Cc1cc(Nc2nc(-c3ccccc3)nc3cc([N+](=O)[O-])ccc23)n[nH]1"
assayed_system = "MDA-MB-231"
qualifier_symbol = "="
value_measured = 5.01

[[record]]
structure_smiles_string = "COc1ccc2c(Nc3cc(C)[nH]n3)nc(-c3ccccc3)nc2c1"
assayed_system = "MDA-MB-231"
qualifier_symbol = "="
value_measured = 5.88

[[record]]
structure_smiles_string = "Cc1cc(Nc2nc(C(C)C)nc3ccccc23)n[nH]1"
assayed_system = "MDA-MB-231"
qualifier_symbol = "="
value_measured = 5.32

[[record]]
structure_smiles_string = "Cc1ccc(C(=O)c2nc(Nc3cc(C)[nH]n3)c3ccc(Cl)cc3n2)cc1"
assayed_system = "MDA-MB-231"
qualifier_symbol = "<"
value_measured = 4.52

[[record]]
structure_smiles_string = "Cc1cc(Nc2nc(-c3ccccc3)nc3cc(N4CCC(C(=O)O)CC4)ccc23)n[nH]1"
assayed_system = "MDA-MB-231"
qualifier_symbol = "="
value_measured = 4.98

[[record]]
structure_smiles_string = "Cc1cc(Nc2nc(Cc3ccccc3)nc3ccccc23)n[nH]1"
assayed_system = "MDA-MB-231"
qualifier_symbol = "="
value_measured = 5.51

[[record]]
structure_smiles_string = "Cc1cc(Nc2nc(-c3ccc4ccccc4c3)nc3ccccc23)n[nH]1"
assayed_system = "MDA-MB-231"
qualifier_symbol = "="
value_measured = 4.96


* * *

Test system: MOLT-4
Measurement Notes: Antiproliferative activity against human MOLT4 cells after 48 hrs by CCK8 assay
Type: functional, cell-based
Condition Set: Homo sapiens, MOLT-4, 48 h; read-out: IC50
pIC50: −log10 of the molar value.
Readout: pIC50

[[record]]
structure_smiles_string = "Cc1cc(Nc2nc(-c3ccc4ccccc4c3)nc3ccccc23)n[nH]1"
readout = "pIC50"
value_measured = 4.98

[[record]]
structure_smiles_string = "COc1ccc2c(Nc3cc(C)[nH]n3)nc(-c3ccccc3)nc2c1"
readout = "pIC50"
value_measured = 5.92

[[record]]
structure_smiles_string = "COc1cccc2c(Nc3cc(C)[nH]n3)nc(-c3ccccc3)nc12"
readout = "pIC50"
value_measured = 5.54

[[record]]
structure_smiles_string = "CCOC(=O)C1CCN(c2ccc3c(Nc4cc(C)[nH]n4)nc(-c4ccccc4)nc3c2)CC1"
readout = "pIC50"
value_measured = 6.09

[[record]]
structure_smiles_string = "Cc1cc(Nc2nc(C(=O)c3ccccc3)nc3ccccc23)n[nH]1"
readout = "pIC50"
value_measured = 5.05

[[record]]
structure_smiles_string = "COc1cccc2c(Nc3cc(C)[nH]n3)nc(Cc3ccccc3)nc12"
readout = "pIC50"
value_measured = 5.32

[[record]]
structure_smiles_string = "Cc1cc(Nc2nc(-c3ccccc3)nc3c([N+](=O)[O-])cccc23)n[nH]1"
readout = "pIC50"
value_measured = 5.19

[[record]]
structure_smiles_string = "Cc1cc(Nc2nc(Cc3ccccc3)nc3ccccc23)n[nH]1"
readout = "pIC50"
value_measured = 5.24

[[record]]
structure_smiles_string = "Cc1cc(Nc2nc(-c3ccccc3)nc3cc(N4CCC(C(=O)O)CC4)ccc23)n[nH]1"
readout = "pIC50"
value_measured = 5.66

[[record]]
structure_smiles_string = "Cc1cc(Nc2nc(-c3ccccc3)nc3cc(N4CCN(C)CC4)ccc23)n[nH]1"
readout = "pIC50"
value_measured = 6.83

[[record]]
structure_smiles_string = "Cc1cc(Nc2nc(-c3ccccc3)nc3ccccc23)n[nH]1"
readout = "pIC50"
value_measured = 5.29


* * *

Assayed System: Aurora kinase A (Homo sapiens, UniProt O14965)
Sequence (O14965 whole entry): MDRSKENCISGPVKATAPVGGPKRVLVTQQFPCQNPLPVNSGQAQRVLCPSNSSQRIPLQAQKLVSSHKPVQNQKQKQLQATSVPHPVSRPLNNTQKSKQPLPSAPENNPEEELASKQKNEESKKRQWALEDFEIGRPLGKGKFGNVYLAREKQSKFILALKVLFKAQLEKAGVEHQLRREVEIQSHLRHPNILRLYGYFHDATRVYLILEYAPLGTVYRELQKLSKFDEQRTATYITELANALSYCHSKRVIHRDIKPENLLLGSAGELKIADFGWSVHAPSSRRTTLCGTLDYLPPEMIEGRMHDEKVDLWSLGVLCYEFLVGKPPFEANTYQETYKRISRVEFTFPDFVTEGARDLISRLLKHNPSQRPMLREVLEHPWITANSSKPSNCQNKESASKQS
pIC50: −log10 of the molar value.
Readout: pIC50

[[record]]
structure_smiles_string = "Cc1cc(Nc2nc(-c3ccc4ccccc4c3)nc3ccccc23)n[nH]1"
assayed_system = "Aurora kinase A (Homo sapiens, UniProt O14965)"
readout = "pIC50"
value_measured = 6.89

[[record]]
structure_smiles_string = "CCOC(=O)C1CCN(c2ccc3c(Nc4cc(C)[nH]n4)nc(-c4ccccc4)nc3c2)CC1"
assayed_system = "Aurora kinase A (Homo sapiens, UniProt O14965)"
readout = "pIC50"
value_measured = 7.42

[[record]]
structure_smiles_string = "Cc1cc(Nc2nc(Cc3ccccc3)nc3ccccc23)n[nH]1"
assayed_system = "Aurora kinase A (Homo sapiens, UniProt O14965)"
readout = "pIC50"
value_measured = 7.16

[[record]]
structure_smiles_string = "COc1ccc2c(Nc3cc(C)[nH]n3)nc(-c3ccccc3)nc2c1"
assayed_system = "Aurora kinase A (Homo sapiens, UniProt O14965)"
readout = "pIC50"
value_measured = 7.47

[[record]]
structure_smiles_string = "Cc1ccc(C(=O)c2nc(Nc3cc(C)[nH]n3)c3ccc(Cl)cc3n2)cc1"
assayed_system = "Aurora kinase A (Homo sapiens, UniProt O14965)"
readout = "pIC50"
value_measured = 5.89

[[record]]
structure_smiles_string = "Cc1cc(Nc2nc(C(C)C)nc3ccccc23)n[nH]1"
assayed_system = "Aurora kinase A (Homo sapiens, UniProt O14965)"
readout = "pIC50"
value_measured = 6.99

[[record]]
structure_smiles_string = "COc1cccc(OC)c1C(=O)c1nc(Nc2cc(C)[nH]n2)c2ccc(N3CCC(C(=O)OC(C)(C)C)CC3)cc2n1"
assayed_system = "Aurora kinase A (Homo sapiens, UniProt O14965)"
readout = "pIC50"
value_measured = 6.66

[[record]]
structure_smiles_string = "COc1cccc2c(Nc3cc(C)[nH]n3)nc(Cc3ccccc3)nc12"
assayed_system = "Aurora kinase A (Homo sapiens, UniProt O14965)"
readout = "pIC50"
value_measured = 7.39


* * *

This section presents molecules with their documented IC50 values.
Tested on: MDA-MB-231
Measurement Notes: Antiproliferative activity against human MDA-MB-231 cells after 48 hrs by CCK8 assay
Type: functional, cell-based
Condition Set: MDA-MB-231, 48 h
Readout: IC50 (nM)

[[record]]
structure_smiles_string = "Cc1cc(Nc2nc(-c3ccccc3)nc3cc(N4CCN(C)CC4)ccc23)n[nH]1"
readout = "IC50"
reading_unit = "nM"
value_measured = 142

[[record]]
structure_smiles_string = "COc1ccc(C(=O)c2nc(Nc3cc(C)[nH]n3)c3ccc(Cl)cc3n2)cc1"
readout = "IC50"
reading_unit = "nM"
value_measured = 12300

[[record]]
structure_smiles_string = "COc1cccc2c(Nc3cc(C)[nH]n3)nc(-c3ccccc3)nc12"
readout = "IC50"
reading_unit = "nM"
value_measured = 1900

[[record]]
structure_smiles_string = "Cc1cc(Nc2nc(C(=O)c3ccccc3)nc3ccccc23)n[nH]1"
readout = "IC50"
reading_unit = "nM"
value_measured = 17000

[[record]]
structure_smiles_string = "Cc1cc(Nc2nc(-c3ccccc3)nc3ccccc23)n[nH]1"
readout = "IC50"
reading_unit = "nM"
value_measured = 2880


Data credit: ChEMBL document CHEMBL4270643
